# Tested target: T1, human TREM2 (human, UniProt Q9NZC2 19-174, limits assumed)
# T1 sequence: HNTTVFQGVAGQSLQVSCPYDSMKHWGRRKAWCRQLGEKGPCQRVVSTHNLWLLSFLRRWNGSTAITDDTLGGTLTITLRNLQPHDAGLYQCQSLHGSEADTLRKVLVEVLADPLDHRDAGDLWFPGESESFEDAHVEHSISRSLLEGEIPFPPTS
# Measurement notes: yeast-displayed Fab FACS, 2nd screen 10 nM
// binding signal fold over 6E7 parental lookup, one value per entry
// return numeric value only (unit: fold, not printed)

Study these solved cases before continuing.
- Binder: "V77 (Fab, V domains shown) VH: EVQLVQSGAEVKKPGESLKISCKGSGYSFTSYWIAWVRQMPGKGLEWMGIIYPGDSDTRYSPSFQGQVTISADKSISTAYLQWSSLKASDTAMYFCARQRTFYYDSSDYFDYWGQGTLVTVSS VL: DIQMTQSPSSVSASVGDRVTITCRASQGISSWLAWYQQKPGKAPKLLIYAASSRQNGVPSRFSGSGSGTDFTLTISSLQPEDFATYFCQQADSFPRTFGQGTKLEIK"
  binding signal fold over 6E7 parental, fold: 1.38
- Binder: "V88 (Fab, V domains shown) VH: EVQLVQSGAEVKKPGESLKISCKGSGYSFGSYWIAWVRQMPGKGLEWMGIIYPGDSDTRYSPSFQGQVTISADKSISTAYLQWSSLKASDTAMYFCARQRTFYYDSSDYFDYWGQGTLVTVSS VL: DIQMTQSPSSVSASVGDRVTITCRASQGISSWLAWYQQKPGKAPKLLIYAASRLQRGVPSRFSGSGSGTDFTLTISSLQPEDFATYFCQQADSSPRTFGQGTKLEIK"
  binding signal fold over 6E7 parental, fold: 5.3
- Binder: "V48 (Fab, V domains shown) VH: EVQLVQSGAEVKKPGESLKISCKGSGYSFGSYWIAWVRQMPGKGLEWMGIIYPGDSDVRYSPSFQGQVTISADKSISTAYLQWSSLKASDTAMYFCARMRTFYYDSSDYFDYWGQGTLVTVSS VL: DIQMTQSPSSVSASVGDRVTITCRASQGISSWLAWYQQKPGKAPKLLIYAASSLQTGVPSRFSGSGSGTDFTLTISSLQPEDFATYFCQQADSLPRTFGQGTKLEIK"
  binding signal fold over 6E7 parental, fold: 2.54
- Binder: "V17 (Fab, V domains shown) VH: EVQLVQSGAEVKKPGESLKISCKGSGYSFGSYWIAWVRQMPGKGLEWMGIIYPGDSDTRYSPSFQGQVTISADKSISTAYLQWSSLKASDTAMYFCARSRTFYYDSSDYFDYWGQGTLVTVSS VL: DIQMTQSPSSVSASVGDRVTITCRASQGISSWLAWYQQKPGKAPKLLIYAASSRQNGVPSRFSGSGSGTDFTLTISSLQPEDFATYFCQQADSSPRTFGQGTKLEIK"
  binding signal fold over 6E7 parental, fold: 5.51
- Binder: "V2 (Fab, V domains shown) VH: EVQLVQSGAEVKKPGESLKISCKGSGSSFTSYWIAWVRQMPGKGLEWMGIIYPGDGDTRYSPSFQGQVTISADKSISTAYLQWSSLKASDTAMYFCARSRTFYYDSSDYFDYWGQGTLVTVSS VL: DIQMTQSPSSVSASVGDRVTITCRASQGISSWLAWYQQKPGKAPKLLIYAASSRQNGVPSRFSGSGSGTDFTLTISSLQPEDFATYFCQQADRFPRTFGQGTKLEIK"
  binding signal fold over 6E7 parental, fold: 2.9

// query Query (binder): V60 (Fab, V domains shown) VH: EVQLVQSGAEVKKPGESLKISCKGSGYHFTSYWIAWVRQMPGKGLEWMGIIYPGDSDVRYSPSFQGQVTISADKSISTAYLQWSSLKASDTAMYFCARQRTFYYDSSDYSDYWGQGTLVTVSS VL: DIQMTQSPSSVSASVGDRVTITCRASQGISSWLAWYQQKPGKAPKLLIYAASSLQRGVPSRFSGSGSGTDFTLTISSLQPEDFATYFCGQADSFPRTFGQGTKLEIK ; field requested: binding signal fold over 6E7 parental
// result 3.63

// query Query (binder): V85 (Fab, V domains shown) VH: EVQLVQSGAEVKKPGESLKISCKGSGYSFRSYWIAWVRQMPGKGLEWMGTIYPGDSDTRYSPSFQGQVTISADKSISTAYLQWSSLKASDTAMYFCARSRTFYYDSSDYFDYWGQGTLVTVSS VL: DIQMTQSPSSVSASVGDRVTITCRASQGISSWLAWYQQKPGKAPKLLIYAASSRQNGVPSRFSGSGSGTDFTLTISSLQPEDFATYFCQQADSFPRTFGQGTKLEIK ; field requested: binding signal fold over 6E7 parental
// result 5.37

// query Query (binder): V24 (Fab, V domains shown) VH: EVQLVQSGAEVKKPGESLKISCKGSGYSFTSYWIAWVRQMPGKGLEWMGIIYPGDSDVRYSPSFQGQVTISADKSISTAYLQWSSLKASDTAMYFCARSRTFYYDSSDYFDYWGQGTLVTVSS VL: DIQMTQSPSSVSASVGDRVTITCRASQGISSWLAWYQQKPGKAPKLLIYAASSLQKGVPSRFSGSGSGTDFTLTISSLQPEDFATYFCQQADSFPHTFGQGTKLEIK ; field requested: binding signal fold over 6E7 parental
// result 2.9

// query Query (binder): V73 (Fab, V domains shown) VH: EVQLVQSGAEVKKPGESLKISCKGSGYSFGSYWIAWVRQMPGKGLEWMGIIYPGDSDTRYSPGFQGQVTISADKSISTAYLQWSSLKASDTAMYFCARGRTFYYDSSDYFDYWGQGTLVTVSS VL: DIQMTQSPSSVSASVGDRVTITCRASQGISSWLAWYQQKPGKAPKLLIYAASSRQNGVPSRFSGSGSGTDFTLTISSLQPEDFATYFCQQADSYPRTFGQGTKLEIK ; field requested: binding signal fold over 6E7 parental
// result 5.44

// query Query (binder): V27 (Fab, V domains shown) VH: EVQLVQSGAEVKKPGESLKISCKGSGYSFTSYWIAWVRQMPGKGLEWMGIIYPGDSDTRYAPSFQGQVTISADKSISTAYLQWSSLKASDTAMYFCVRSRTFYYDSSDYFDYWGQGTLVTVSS VL: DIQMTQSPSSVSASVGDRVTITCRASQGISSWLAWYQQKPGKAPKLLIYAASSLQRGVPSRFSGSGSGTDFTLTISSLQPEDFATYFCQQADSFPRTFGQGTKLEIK ; field requested: binding signal fold over 6E7 parental
// result 5.69
